We begin with pIC50 values for Serine/threonine-protein kinase mTOR (Homo sapiens), as collected from the published literature.
pIC50: −log10 of the molar value.

Task: Which pIC50 value belongs to "N#CCc1ccc(-n2c(-c3cc(-c4cnc5[nH]ccc5c4)ccn3)c[nH]c2=O)cc1" ?
Output: 5.00 to 7.00

Task: Next molecule: "NC(=O)c1nc(-c2cccnc2)nc2c1[nH]c(=O)n2C1CCN(C(=O)OCc2ccccc2)CC1"
Output: 5.30 to 7.00

Task: Next molecule: "CN1CCN(C(=O)Cn2cnc3c(-c4cccc(O)c4)nc(N4CCOCC4)nc32)CC1"
Output: 5.30 to 6.00

Task: Next molecule: "O=c1[nH]c2ncc(-c3ccc4[nH]ncc4c3)cc2n1CC1CCOCC1"
Output: 5.30 to 7.00

Task: Next molecule: "Nc1ncc(-c2cc(C(F)(F)C3CCOCC3)cc(N3CCOCC3)n2)cn1"
Output: 6.36

Task: Next molecule: "C#Cc1cnc2ccc(-c3cnc(Cl)c(NS(=O)(=O)c4ccc(F)cc4)c3)nn12"
Output: 7.62

Task: Next molecule: CC1c2c(N3CCOC[C@@H]3C)nc(-c3ccc(NC(=O)NCCF)cc3)nc2C(C)(C)S1(=O)=O (stereo partly drawn)
Output: > 7.00

Task: Next molecule: "Oc1cccc(-c2nc(N3CCOCC3)nc3c2ncn3Cc2cccc(OC(F)(F)F)c2)c1"
Output: 5.30 to 6.00

Task: Next molecule: "CNC(=O)Nc1ccc(-c2nc(N3CCOCC3)c3cc(-c4cccc(NS(=O)(=O)c5c(F)cccc5F)c4F)cc(OC)c3n2)cc1"
Output: 7.00 to 9.00

Task: Next molecule: "O=S(=O)(CCCF)Nc1cccc(-c2ccc3nc(-c4ccc(NCCCO)nc4)nc(N4CCOCC4)c3n2)c1F"
Output: 7.00 to 9.00

Task: Next molecule: "CCOCc1cc(-c2ccc3ncc4c(c3c2)n(-c2cn(C(C)C)nc2C)c(=O)n4C)cnc1N"
Output: 7.26

Task: Next molecule: "CN(C)C(=O)c1ccc(NC(=O)Nc2ccc(-c3nc(N4CCOCC4)c4ncc(-c5cccnc5F)cc4n3)c(F)c2)cc1"
Output: > 7.30

Task: Next molecule: "COCc1ncc(-c2ccc3ncc4c(c3c2)n(-c2cn(C)nc2C)c(=O)n4C)cc1OC"
Output: 7.32

Task: Next molecule: "Cc1nc(N(C)C)ncc1-c1nc(N2CCOCC2)c2nc(N3CCN(S(C)(=O)=O)CC3)n(CC3CC3)c2n1"
Output: ≤ 6.30

Task: Next molecule: "[2H]C([2H])([2H])OCc1ncc(-c2ccc3ncc4c(c3c2)n(-c2cn(C)nc2C)c(=O)n4C)cc1OCC"
Output: 7.14

Task: Next molecule: "CC(C)(C#N)c1ccc(-c2nnc3cnc4ccc(-c5ccc(N)nc5)cc4n23)cc1"
Output: > 7.00

Task: Next molecule: "Cc1c(-c2cnc3[nH]c(=O)n(C[C@H]4COCCO4)c3c2)cnc2[nH]ccc12"
Output: > 7.30

Task: Next molecule: "CC(=O)Nc1cccc(-c2ccc3c(N4CCOCC4)nc(-c4cnc(N)nc4)nc3c2)c1"
Output: 6.70 to 7.30

Task: Next molecule: "C[C@H]1CN(c2nc3c(N4CCOCC4)nc(-c4cnc(N)nc4)nc3n2CC(F)(F)F)CCN1"
Output: 7.52 to 8.00

Task: Next molecule: "CN(C)C(=O)c1ccc(NC(=O)Nc2ccc(-c3nc(N4CCOCC4)c4ccc(-c5ccco5)cc4n3)c(F)c2F)cc1"
Output: 5.00 to 6.70

Task: Next molecule: "Cn1cc(-c2cc(-c3ccc4[nH]ncc4c3)ccn2)n(-c2ccc(C(C)(C)C#N)cc2)c1=O"
Output: 5.00 to 7.00

Task: Next molecule: CC(c1ccccc1)c1cc(-c2cnc(N)nc2)nc(N2CCOCC2)c1 (stereo not drawn)
Output: 6.57

Task: Next molecule: "CNC(=O)c1ccc(NC(=O)Nc2ccc(-c3nc(N4CCOCC4)c4ccc(-c5cccc(S(C)(=O)=O)c5)cc4n3)cc2)cc1"
Output: > 7.30

Task: Next molecule: "O=C(CCN1CCCCC1)N1CCC(n2cnc3c(-c4cccc5[nH]ccc45)nc(N4CCOCC4)nc32)CC1"
Output: > 6.00

Task: Next molecule: "COc1ncc(-c2ccc3c(N4CCOCC4)nc(-c4ccc(NC(=O)Nc5ccc(C(=O)N(C)C)cc5)nc4)nc3c2)cn1"
Output: 5.00 to 6.70

Task: Next molecule: "C[C@H](Nc1nc(N2CCOCC2)nc(-n2c(C(F)F)nc3ccccc32)n1)c1ccccc1"
Output: < 6.30

Task: Next molecule: "C[C@@H](O)C(=O)N1CCC(Cc2nc3c(-c4ccc(-c5ccccc5)nc4)cnn3c3[nH]ccc23)CC1"
Output: 7.00 to 8.00

Task: Next molecule: "CN(C)C(=O)c1ccc(NC(=O)Nc2ccc(-c3nc(N4CCOCC4)c4ccc(-c5ccc(CO)o5)cc4n3)cc2)cc1"
Output: > 7.30

Task: Next molecule: "Cc1ccc(C(=O)N2CCC(n3cnc4c(-c5cccc6[nH]ccc56)nc(N5CCOCC5)nc43)CC2)s1"
Output: > 6.00

Task: Next molecule: "Cc1nc(N)ncc1-c1nc(N2CCOC[C@@H]2C)c2nc(-c3cccc(NS(=O)(=O)CCCF)c3F)ccc2n1"
Output: 6.00 to 7.00
